Tested on: Klebsiella aerogenes DSM 30053
TEST PROTOCOL: growth (OD595) fold change vs plate DMSO controls (fold change (ratio)); higher = more growth
MEASUREMENT SETUP: 20 µM; incubation time: 27 h, anaerobic, 37 °C
READOUT NAME: growth
Field format: numeric only.

Some compounds with known growth results, for comparison:
# COMPOUND, ASSAY TARGET, READOUT NAME, ASSAY VALUE
records = [
    ("c1ccc2c(c1)ccc1c3ccccc3sc21 [Benzo[b]naphtho[2,1-d]thiophene]", "Klebsiella aerogenes DSM 30053", "growth", 1.11),
    ("N#Cc1c[nH]cc1-c1cccc2c1OC(F)(F)O2", "Klebsiella aerogenes DSM 30053", "growth", 0.984),
    ("C=C[C@H]1CN2CC[C@H]1C[C@H]2[C@H](OC(=O)OCC)c1ccnc2ccc(OC)cc12 [Quinine ethyl carbonate]", "Klebsiella aerogenes DSM 30053", "growth", 1.01),
]

Now look at this entry.
Short answer for CCC(C)c1ccccc1OC(=O)NC (centres undefined) : growth was 1.09
